- experimental.protocol: Neutral red (NR) uptake assay in differentiated SH-SY5Y cells
- Type: cell-based, human
- assay.context: human
Peptide text beside a SMILES is read from it.
attribute.measured: viability at 48 h, 100 µM (%)
Give bare numbers, in %.

| compound | unit.symbol | viability at 48 h, 100 µM |
| --- | --- | --- |
| CC(C)C[C@H](NC(=O)[C@@H]1CCCN1)C(=O)NCC(N)=O [MIF-1, L-prolyl-L-leucylglycinamide, reference compound] (H-Pro-Leu-Gly-NH2) | % | 97.8 |
| COC(=O)CNC(=O)[C@H](CC(C)C)NC(=O)[C@@H]1CCCCN1 [compound 9, methyl L-pipecolyl-L-leucylglycinate] (HELM PEPTIDE1{[O=C([C@@H]1CCCCN1)[*:2]].L.G.[CO[*:1]]}$$$$V2.0) | % | 100 |

From here, focus on the item given below.
**Query** Name the reported viability at 48 h, 100 µM value associated with the compound CC(C)C[C@H](NC(=O)[C@@H]1CCCCN1)C(=O)NCC(N)=O [compound 1, L-pipecolyl-L-leucylglycinamide] (HELM PEPTIDE1{[O=C([C@@H]1CCCCN1)[*:2]].L.G.[am]}$$$$V2.0)
**Result** 102
